Tested on: Cavia porcellus
TEST_SUMMARY: Compound tested in vivo for inhibition of Bradykinin induced Bronchoconstriction in anaesthetized guinea pig.(P<0.01); % Inhibition at 1 mg/kg. p.o.
Format: functional
CONDITION_PARAMETERS: route oral
Give true when the value for inhibition in vivo at 1 mg/kg is at least 50%. Give false when it is less.

Study these solved cases before continuing.
> print(dat)
                                smiles.data  label.value
1  Cc1nc2c(OCc3c(Cl)ccc(N(C)C(=O)CNC(=O)/C=C\c4ccccc4)c3Cl)cccn2c1Br        false
2  CC(=O)NCC(=O)N(C)c1ccc(Cl)c(COc2cccn3c(Br)c(C)nc23)c1Cl.Cl         true
3  CCCC(=O)NCC(=O)N(C)c1ccc(Cl)c(COc2cccn3c(Br)c(C)nc23)c1Cl         true
4  Cc1nc2c(OCc3c(Cl)ccc(N(C)C(=O)CNC(=O)Nc4cccc([N+](=O)[O-])c4)c3Cl)cccn2c1Br        false
5  Cc1nc2c(OCc3c(Cl)ccc(N(C)C(=O)CNC(=O)CN(C)C)c3Cl)cccn2c1Br         true

Can `CCNC(=O)NCC(=O)N(C)c1ccc(Cl)c(COc2cccn3c(Br)c(C)nc23)c1Cl` be said to have inhibition in vivo at 1 mg/kg at or above 50%? true

----------
TARGET_SYSTEM: B2 bradykinin receptor (Homo sapiens, UniProt P30411)
Sequence (P30411 whole entry): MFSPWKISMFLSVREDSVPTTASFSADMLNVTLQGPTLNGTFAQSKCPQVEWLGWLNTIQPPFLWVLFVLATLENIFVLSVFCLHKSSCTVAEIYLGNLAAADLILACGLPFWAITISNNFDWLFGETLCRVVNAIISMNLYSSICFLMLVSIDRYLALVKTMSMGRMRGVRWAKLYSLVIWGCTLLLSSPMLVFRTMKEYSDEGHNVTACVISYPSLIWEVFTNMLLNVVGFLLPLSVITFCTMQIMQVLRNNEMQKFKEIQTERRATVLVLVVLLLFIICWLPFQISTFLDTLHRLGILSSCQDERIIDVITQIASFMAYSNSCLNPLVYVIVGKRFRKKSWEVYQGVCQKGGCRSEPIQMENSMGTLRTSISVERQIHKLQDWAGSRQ
TEST_SUMMARY: Concentration required to inhibit specific binding of [3H]BK at 1.2 nM to A-431 cells (human epidermoid carcinoma) which express Bradykinin receptor B2 by 50%.
READOUT_KIND: IC50 (nM)
Give the quantity in nM, number only.

Examples with their reported IC50 follow.
> print(dat)
                                smiles.data  measured.value
1  CC(=O)c1cccc(NC(=O)NCC(=O)N(C)c2ccc(Cl)c(COc3cccn4c(Br)c(C)nc34)c2Cl)c1.Cl              61
2  CNC(=O)c1ccc(/C=C/C(=O)NCC(=O)N(C)c2ccc(Cl)c(COc3cccn4c(Br)c(C)nc34)c2Cl)cc1.Cl             1.5
3  COc1cccc(NC(=O)NCC(=O)N(C)c2ccc(Cl)c(COc3cccn4c(Br)c(C)nc34)c2Cl)c1.Cl             200

Alright, here's another compound for you.
# returns recorded IC50 (system: B2 bradykinin receptor (Homo sapiens, UniProt P30411)) for `Cc1nc2c(OCc3c(Cl)ccc(N(C)C(=O)CNC(=O)NCc4ccccc4)c3Cl)cccn2c1Br.Cl` 570

----------
TARGET_SYSTEM: B2 bradykinin receptor (Cavia porcellus, UniProt O70526)
Sequence (O70526 whole entry): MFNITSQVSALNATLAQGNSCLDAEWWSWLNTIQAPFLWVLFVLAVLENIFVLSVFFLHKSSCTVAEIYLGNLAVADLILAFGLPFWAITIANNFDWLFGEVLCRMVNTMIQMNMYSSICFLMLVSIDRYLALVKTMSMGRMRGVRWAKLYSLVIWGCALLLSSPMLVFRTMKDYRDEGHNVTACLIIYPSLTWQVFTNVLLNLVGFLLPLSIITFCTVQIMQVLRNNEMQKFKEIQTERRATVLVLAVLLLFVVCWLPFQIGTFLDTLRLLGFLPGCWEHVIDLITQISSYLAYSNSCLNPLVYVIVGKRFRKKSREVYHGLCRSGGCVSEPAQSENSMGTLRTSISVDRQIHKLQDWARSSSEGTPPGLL
TEST_SUMMARY: Concentration required to inhibit specific binding of [3H]BK at 0.06 nM to Bradykinin receptor B2 in guinea pig ileum membrane preparations by 50%.
log10(IC50) for assorted compounds
Scale type: logarithmic (base 10). Underlying IC50 unit: nM.

SMILES_DATA	MEASURED_VALUE
Cc1nc2c(OCc3c(Cl)ccc(N(C)C(=O)CNC(=O)Nc4cccc(N)c4)c3Cl)cccn2c1Br	1.18
COCCNC(=O)c1cccc(NC(=O)NCC(=O)N(C)c2ccc(Cl)c(COc3cccn4c(Br)c(C)nc34)c2Cl)c1.Cl	-0.10
COCC(=O)Nc1cccc(NC(=O)NCC(=O)N(C)c2ccc(Cl)c(COc3cccn4c(Br)c(C)nc34)c2Cl)c1	0.43

Form field: reported log10(IC50) of `Cc1nc2c(OCc3c(Cl)ccc(N(C)C(=O)CNC(=O)COc4ccccc4)c3Cl)cccn2c1Br` 0.62

Form field: reported log10(IC50) of `Cc1nc2c(OCc3c(Cl)ccc(N(C)C(=O)CNC(=O)/C=C/c4ccc(NS(C)(=O)=O)cc4)c3Cl)cccn2c1Br` 0.59

Form field: reported log10(IC50) of `Cc1nc2c(OCc3c(Cl)ccc(N(C)C(=O)CNC(=O)Nc4cccc(Cl)c4)c3Cl)cccn2c1Br.Cl` 0.58

Form field: reported log10(IC50) of `Cc1nc2c(OCc3c(Cl)ccc(N(C)C(=O)CNC(=O)Nc4ccccc4)c3Cl)cccn2c1Br` 0.15

Form field: reported log10(IC50) of `Cc1nc2c(OCc3c(Cl)ccc(N(C)C(=O)CNC(=O)Nc4cccc(C(=O)O)c4)c3Cl)cccn2c1Br` 1.80

Form field: reported log10(IC50) of `Cc1nc2c(OCc3c(Cl)ccc(N(C)C(=O)CNC(=O)Nc4cccc([N+](=O)[O-])c4)c3Cl)cccn2c1Br` 0.62

Form field: reported log10(IC50) of `NC(N)=NCCC[C@@H](N)C(=O)N[C@@H](CCCN=C(N)N)C(=O)N1CCC[C@H]1C(=O)N1C[C@H](O)C[C@H]1C(=O)NCC(=O)N[C@@H](Cc1cccs1)C(=O)N[C@@H](CO)C(=O)N1Cc2ccccc2C[C@@H]1C(=O)N1[C@H](C(=O)N[C@@H](CCCN=C(N)N)C(=O)O)C[C@@H]2CCCC[C@@H]21` -1.05

Ref: ChEMBL document CHEMBL1131588
